experiment: alpha-synuclein stem-loop luciferase translation blockers – H4 neuroglioma cells, luminescence, confirmation (AID 1988); type: functional, cell-based
Activity calls are given as the source filed them. Rule as the data show it: actives have a measured EC50 and inactives only a lower limit.
Attribute Measured: EC50

Complete the entry with EC50 for O=C(CN1CCOCC1)Nc1cccc(Cl)c1Cl > 120 µM (not active)

Answer with the recorded EC50 for the compound listed here: C1CCCCCC2(CCCCC1)OCC(CN1CCOCC1)O2 (stereo unspecified) > 120 µM (not active)

Answer with the recorded EC50 for the compound listed here: COc1ccc(C(=O)/N=C2\SC3CS(=O)(=O)CC3N2Cc2ccccc2)cc1OC (stereo unspecified) > 120 µM (not active)

Please supply the value of reported EC50 for the item CCCCn1c(SCc2ccc(Cl)cc2)nc2c1c(=O)[nH]c(=O)n2C 17 µM (active)

Determine from records and report EC50 for COc1ccc2nc(Nc3nc(O)cc(CSc4nc5ccccc5[nH]4)n3)nc(C)c2c1 10.2 µM (active)

In one line, give reported EC50 of the entry O=C(CN(Cc1ccc(F)cc1)C(=O)C1CSC(=O)C1)NC1CCCCC1 (stereo unspecified) . > 120 µM (not active)
